Values compiled from PubChem BioAssay (NCI).

System: RXF 393 renal
Assay: NCI tumour cell line growth inhibition, 48 h
Reported GI50 values for a set of compounds

Example results:
> print(dat)
                                   compound  recorded.metric  test.value
1            Nc1ccc(C#Cc2ccccc2C#CCCCCO)cc1             GI50     4690 nM
2  CCCCCCCCN(CCCCCCCC)CC(O)c1cc(-c2ccccc2)nc2ccc(OC)cc12 (stereo not drawn)             GI50    43700 nM
3  Cc1ccsc1C(NC(=O)c1ccccc1)c1cc(Cl)c2cccnc2c1O (stereo not drawn)             GI50     1770 nM
4  CC1Cc2c(Cl)ncnc2N(C)c2ccccc21 (stereo not drawn)             GI50     2570 nM
5  Clc1cnc(Nc2ccc(OCCN3CCCC3)cc2)nc1NCc1ccco1             GI50     1250 nM
6  NC1CC(=O)c2c(-c3cccs3)sc(-c3cccs3)c21 (stereo not drawn)             GI50    59100 nM

Task: Look up and report measured GI50 for this entry: CCN1CCN(C(=O)[C@]23CC[C@@H](C)[C@H](C)[C@@H]2C2=CC[C@@H]4[C@@]5(C)CCC(=O)C(C)(C)[C@@H]5CC[C@@]4(C)[C@]2(C)CC3)CC1
Result: 822 nM

Task: Look up and report measured GI50 for this entry: CCN(CC)CCOc1nc2ccccc2c2c1-c1ccc(OC)cc1C2=O
Result: 1630 nM
